- protocolNotes: In vivo pharmacokinetics study in Balb/c mice
- testConditions: female, Balb/c, mouse, oral 30 mg/kg, plasma, read-out: Cmax Oral
valueType: Cmax (ng/mL)

1 = Cc1c(C#N)cccc1-c1cc(-c2cn(Cc3cccc(C#N)n3)nn2)nc(N)n1
2 = Cc1c(C#N)cccc1-c1cc(-c2cn(Cc3cccc(C(N)=O)n3)nn2)nc(N)n1
Exercise: Please tell me which of the two, 1 or 2 , has the higher reported Cmax value. Label of pick, please.
Solution: 1
(1: 7160 ng/mL, 2: 1010 ng/mL)

* * *

- protocolNotes: In vivo pharmacokinetics study in Balb/c mice
- testConditions: female, Balb/c, mouse, plasma, oral 30 mg/kg, read-out: AUC0→t Oral
valueType: AUC(0-t) (ng·h/mL)

a = Cc1c(C#N)cccc1-c1cc(-c2cn(Cc3cccc(C(N)=O)n3)nn2)nc(N)n1 [Compound 7i]
b = Cc1c(C#N)cccc1-c1cc(-c2cn(Cc3cccc(C#N)n3)nn2)nc(N)n1 [Compound 7f]
Exercise: // which entry reports the smaller AUC(0-t), a or b ? Refer to your chosen item by its label in the answer.
Solution: a
(a: 7900 ng·h/mL, b: 45500 ng·h/mL)

* * *

- protocolNotes: Metabolic stability in rat liver microsomes
- Assay type: in vitro ADME, Sprague–Dawley rats
- testConditions: male, Sprague-Dawley, pooled rat liver microsomes; rat liver microsomes, 30 min
valueType: remaining at 0.5 h, 0.49 µM (%)

molecule | unitSpec | remaining at 0.5 h, 0.49 µM
Cc1c(C#N)cccc1-c1cc(-c2cn(Cc3cccc(C(N)=O)n3)nn2)nc(N)n1 [Compound 7i] | % | 67.8
CCOc1ccc2ccc(=O)oc2c1 [Compound 7-EC, 7-ethoxycoumarin, reference compound] | % | 10.4

P = Cc1c(C#N)cccc1-c1cc(-c2cn(Cc3cccc(C(C)(C)O)n3)nn2)nc(N)n1 [AB928, reference compound]
Q = Cc1c(C#N)cccc1-c1cc(-c2cn(Cc3cccc(C#N)n3)nn2)nc(N)n1 [Compound 7f]
Exercise: For this pair, P and Q , which shows a numerically higher remaining at 0.5 h, 0.49 µM? Please respond with the label that marks your chosen entry.
Solution: Q

* * *

- protocolNotes: In vivo pharmacokinetics study in Balb/c mice
- testConditions: female, Balb/c, mouse, plasma, iv, i.v. 10 mg/kg, read-out: AUC0→t i.v.
valueType: AUC(0-t) (ng·h/mL)
State just the number; it will be interpreted in ng·h/mL.

Exercise: Give the measured AUC(0-t) of Cc1c(C#N)cccc1-c1cc(-c2cn(Cc3cccc(C(N)=O)n3)nn2)nc(N)n1 [Compound 7i] .
Solution: 4480

* * *

- protocolNotes: Metabolic stability in human liver microsomes
- Assay type: in vitro ADME
- testConditions: male, human, microsomes
valueType: remaining at 0.5 h, 0.49 µM (%)

compound | remaining at 0.5 h, 0.49 µM [%]
Cc1c(C#N)cccc1-c1cc(-c2cn(Cc3cccc(C(C)(C)O)n3)nn2)nc(N)n1 [AB928, reference compound] | 97
Cc1c(C#N)cccc1-c1cc(-c2cn(Cc3cccc(C(N)=O)n3)nn2)nc(N)n1 | 116
Cc1c(C#N)cccc1-c1cc(-c2cn(Cc3cccc(C#N)n3)nn2)nc(N)n1 | 107
CCOc1ccc2ccc(=O)oc2c1 [Compound 7-EC, 7-ethoxycoumarin, reference compound] | 3.54

* * *

In this section we review reported melting point values for a set of molecules.

Reference set (6 entries):
entrySmiles | valueType | experimentalValue
Cc1c(C#N)cccc1-c1cc(-c2cn(Cc3ccc4ccccc4n3)nn2)nc(N)n1 | melting point | 203 to 204 °C
COC(=O)c1cccc(Cn2cc(-c3cc(-c4cccc(C#N)c4C)nc(N)n3)nn2)n1 | melting point | 105 to 106 °C
COc1cccc(Cn2cc(-c3cc(-c4cccc(C#N)c4C)nc(N)n3)nn2)c1 | melting point | 163 to 164 °C
Cc1c(C#N)cccc1-c1cc(-c2cn(Cc3cccc(C(=O)NCCO)n3)nn2)nc(N)n1 | melting point | 208 to 209 °C
Cc1c(C#N)cccc1-c1cc(-c2cn(Cc3ccc4cccc(N)c4n3)nn2)nc(N)n1 | melting point | 268 to 269 °C
Cc1c(C#N)cccc1-c1cc(-c2cn(Cc3cccc(C(=O)OC(C)C)n3)nn2)nc(N)n1 | melting point | 128 to 129 °C

Exercise: Reported melting point, molecule Cc1c(C#N)cccc1-c1cc(-c2cn(Cc3cccc(C#N)n3)nn2)nc(N)n1 : ____
Solution: 147 to 148 °C

Exercise: Reported melting point for Cc1c(C#N)cccc1-c1cc(-c2cn(Cc3cccc(C(N)=O)n3)nn2)nc(N)n1 : what is it?
Solution: 151 to 152 °C

Exercise: GET /values?readout=melting point&item= Cc1ccc(-c2cc(-c3cn(Cc4cccc(C(C)(C)O)n4)nn3)nc(N)n2)o1
Solution: 188 to 189 °C

Exercise: Report melting point for Cc1c(C#N)cccc1-c1cc(-c2cn(Cc3cccc(C(=O)O)n3)nn2)nc(N)n1 please.
Solution: 176 to 177 °C

Exercise: Reported melting point for Cc1c(C#N)cccc1-c1cc(-c2cn(Cc3cccc(-c4ncc[nH]4)n3)nn2)nc(N)n1 : what is it?
Solution: 139 to 140 °C

Exercise: Field request: melting point | item: COc1ccc(Cn2cc(-c3cc(-c4cccc(C#N)c4C)nc(N)n3)nn2)cc1
Solution: 149 to 150 °C

Exercise: Dear colleague, I am looking for the recorded melting point of the following molecule: CC(C)(O)c1cccc(Cn2cc(-c3cc(-c4cccc(CF)c4)nc(N)n3)nn2)n1
Solution: 76 to 77 °C

* * *

- targetEntity: human A2B AR (Homo sapiens, UniProt P29275)
- Sequence (P29275 1-332): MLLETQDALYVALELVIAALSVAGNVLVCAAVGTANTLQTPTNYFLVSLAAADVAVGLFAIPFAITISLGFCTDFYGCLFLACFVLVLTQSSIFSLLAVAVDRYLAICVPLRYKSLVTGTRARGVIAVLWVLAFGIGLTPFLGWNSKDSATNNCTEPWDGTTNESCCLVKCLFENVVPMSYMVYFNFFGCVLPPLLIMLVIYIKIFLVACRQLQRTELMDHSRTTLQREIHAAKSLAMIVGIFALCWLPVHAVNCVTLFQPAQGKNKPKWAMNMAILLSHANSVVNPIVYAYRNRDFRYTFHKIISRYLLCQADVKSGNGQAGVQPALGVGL
- protocolNotes: cAMP functional assay in CHO-K1/ADORA2b/Gα15 cells (NECA-stimulated, HTRF)
- Format: cell-based
- testConditions: CHO-K1; compound at 100 nM; relative to ZM241385 at 1 μM; mean ± SEM; read-out: hA2B AR (%) inhibition of cAMP, 100 nM
valueType: inhibition at 0.1 µM (%)

Use these answered entries as a reference point.
compound | targetEntity | inhibition at 0.1 µM [%]
Cc1c(C#N)cccc1-c1cc(-c2cn(Cc3cccc(-c4ncc[nH]4)n3)nn2)nc(N)n1 [Compound 7g] | human A2B AR (Homo sapiens, UniProt P29275) | 52.9
Cc1c(C#N)cccc1-c1cc(-c2cn(Cc3cccc(C#N)n3)nn2)nc(N)n1 [Compound 7f] | human A2B AR (Homo sapiens, UniProt P29275) | 103
Cc1c(C#N)cccc1-c1cc(-c2cn(Cc3ccc4ccccc4n3)nn2)nc(N)n1 [Compound 7a] | human A2B AR (Homo sapiens, UniProt P29275) | 3.51
Cc1c(C#N)cccc1-c1cc(-c2cn(Cc3cccc(C(=O)O)n3)nn2)nc(N)n1 [Compound 7h] | human A2B AR (Homo sapiens, UniProt P29275) | 54.8

A = Cc1ccc(-c2cc(-c3cn(Cc4cccc(C(C)(C)O)n4)nn3)nc(N)n2)o1 [Compound 17]
B = Cc1c(C#N)cccc1-c1cc(-c2cn(Cc3cccc(C(N)=O)n3)nn2)nc(N)n1 [Compound 7i]
Exercise: Pick one: A or B . Which one has the lower reported inhibition at 0.1 µM? Give the chosen item's label as your response.
Solution: A

* * *

- protocolNotes: Metabolic stability in human liver microsomes
- Assay type: in vitro ADME
- testConditions: male, human, microsomes
- Experimental: The metabolic stability is an important focus for further compound optimisation. Compounds 7f, 7i, and AB928 were chosen to evaluate the stability in rat liver microsomes and human liver microsomes. For the microsomal metabolic experiment, 7-ethoxycoumarin (7-EC) was used as a control. […] incubated at 37 ℃ for 5 min. […] Then 50 μL of the supernatant was analyzed […] USA). […] Quantification was performed using multiple reaction monitoring (MRM) mode to monitor precursor-product ion transitions (Table S1). […]
valueType: remaining at 40 min, 0.49 µM (%)

molecule | remaining at 40 min, 0.49 µM, %
Cc1c(C#N)cccc1-c1cc(-c2cn(Cc3cccc(C(C)(C)O)n3)nn2)nc(N)n1 [AB928, reference compound] | 91.8
CCOc1ccc2ccc(=O)oc2c1 [Compound 7-EC, 7-ethoxycoumarin, reference compound] | 1.6
Cc1c(C#N)cccc1-c1cc(-c2cn(Cc3cccc(C#N)n3)nn2)nc(N)n1 | 98.4
Cc1c(C#N)cccc1-c1cc(-c2cn(Cc3cccc(C(N)=O)n3)nn2)nc(N)n1 | 101
